- System: Acyrthosiphon pisum
- TEST SUMMARY: Insecticidal activity, direct application to the posterior segment of adult insects
- Format: in vivo
- CONDITION DESCRIPTION: adult A. pisum, 20 insects, 0.5 μg/insect in acetone, survival after one hour
Answer each item with its documented Death rate at 0.5 μg/insect.
Give bare numbers, in %.

Here's what some known entries look like.
COMPOUND	UOM	RESULT VALUE
CC(C)=CCC/C(C)=C/CC/C(C)=C/Cn1cnc2cc(C)c(C)cc21 [Sandacrabin D]	%	100
CC(C)=CCC/C(C)=C/CC/C(C)=C/Cn1c(C)[n+](C/C=C(\C)CC/C=C(\C)CCC=C(C)C)c2cc(C)c(C)cc21 [Sandacrabin C]	%	90
CC(C)=CCC/C(C)=C/CC/C(C)=C/Cn1c[n+](C/C=C(\C)CC/C=C(\C)CCC=C(C)C)c2cc(C)c(C)cc21 [Sandacrabin B]	%	100
CC(C)=CCC/C(C)=C/CC/C(C)=C/Cn1c(C)nc2cc(C)c(C)cc21 [Sandacrabin E]	%	90

Reported Death rate at 0.5 μg/insect ( CC(C)=CCC/C(C)=C/CC/C(C)=C/Cn1c(/C=C(\C)CC/C=C(\C)CCC=C(C)C)nc2cc(C)c(C)cc21 [Sandacrabin A] ) = 10
